- assayed.target: MAP2K2 (human)
- protocol.notes: KINOMEscan competition binding
- measurement.parameters: compound 10.0 µM
This section presents compounds with their documented kinase still bound, per cent of control values.

{"compound": "COc1cc(C(=O)NC2CCN(C)CC2)ccc1Nc1ncc2c(n1)N(C1CCCC1)C(C)CC(=O)N2C (centres undefined)", "assayed.target": "MAP2K2 (human)", "kinase still bound, per cent of control (%)": 100}
{"compound": "C=CC(=O)Nc1cccc(Oc2nc(Nc3ccc(N4CCN(C)CC4)cc3OC)ncc2Cl)c1", "assayed.target": "MAP2K2 (human)", "kinase still bound, per cent of control (%)": 100}
{"compound": "COc1cc(C(=O)NC2CCN(C)CC2)ccc1Nc1ncc2c(n1)N(C1CCCC1)CCC(=O)N2C(C)C", "assayed.target": "MAP2K2 (human)", "kinase still bound, per cent of control (%)": 100}
{"compound": "C[C@@H](Oc1cc(-n2cnc3ccc(CN4CCN(C)CC4)cc32)sc1C(N)=O)c1ccccc1C(F)(F)F", "assayed.target": "MAP2K2 (human)", "kinase still bound, per cent of control (%)": 79}
{"compound": "OCCCNc1cc(-c2ccnc(Nc3cccc(Cl)c3)n2)ccn1", "assayed.target": "MAP2K2 (human)", "kinase still bound, per cent of control (%)": 100}
{"compound": "Nc1ccc(-c2ccc3ncc4ccc(=O)n(-c5cccc(C(F)(F)F)c5)c4c3c2)cn1", "assayed.target": "MAP2K2 (human)", "kinase still bound, per cent of control (%)": 100}
{"compound": "CN(C)C/C=C/C(=O)Nc1cccc(Nc2ncc3c(n2)N(C)c2ccccc2C(=O)N3C)c1", "assayed.target": "MAP2K2 (human)", "kinase still bound, per cent of control (%)": 78}
{"compound": "O=C(NOC[C@H](O)CO)c1ccc(F)c(F)c1Nc1ccc(I)cc1F", "assayed.target": "MAP2K2 (human)", "kinase still bound, per cent of control (%)": 0.2}
{"compound": "COc1cc(N2CCN(C)CC2)ccc1Nc1nc(N)c(C(=O)c2c(Cl)cccc2Cl)s1", "assayed.target": "MAP2K2 (human)", "kinase still bound, per cent of control (%)": 93}
